system.tested: CDK2/cyclin A1 (Homo sapiens)
Construct: purchased Invitrogen Ltd., Paisley, UK (SelectScreen service)
protocol: CDK2/cyclin A1 LanthaScreen (SelectScreen)
Format: binding
measurement.parameters: first list; duplicate, averaged

compound: N[C@H]1CC[C@H](Nc2nc(-c3c(F)cccc3F)nc3c(Cl)cnn23)CC1
IC50: < 200 nM
//
compound: Fc1cccc(F)c1-c1nc(N[C@H]2CC[C@H](N3CCOCC3)CC2)n2ncc(Cl)c2n1
IC50: < 1000 nM
//
compound: FCCN[C@H]1CC[C@H](Nc2nc(-c3c(F)cccc3F)nc3c(Cl)cnn23)CC1
IC50: < 200 nM
//
compound: Fc1cccc(F)c1-c1nc(N[C@H]2CC[C@H](N3CCCCC3)CC2)n2ncc(Cl)c2n1
IC50: < 200 nM
//
compound: COCCNC1CCC(Nc2nc(-c3c(F)cccc3F)nc3c(Cl)cnn23)CC1 (stereo not shown)
IC50: < 1000 nM
//
compound: CN(C)[C@H]1CC[C@H](Nc2nc(-c3c(F)cccc3F)nc3c(Cl)cnn23)CC1
IC50: < 1000 nM
//
compound: FCCCN[C@H]1CC[C@H](Nc2nc(-c3c(F)cccc3F)nc3c(Cl)cnn23)CC1
IC50: < 200 nM

* * *

system.tested: CDK2/cyclin A1 (Homo sapiens)
Construct: purchased Invitrogen Ltd., Paisley, UK (SelectScreen service)
protocol: CDK2/cyclin A1 LanthaScreen (SelectScreen), second list
Assay type: binding
measurement.parameters: second list under the same heading; duplicate, averaged
pIC50: −log10 of the molar value.
result.type: pIC50

molecular.string: CN(C)[C@H]1CC[C@H](Nc2nc(-c3c(F)cccc3F)nc3c(Cl)cnn23)CC1
result.type: pIC50
experimental.result: > 6.70
//
molecular.string: FCCCN[C@H]1CC[C@H](Nc2nc(-c3c(F)cccc3F)nc3c(Cl)cnn23)CC1
result.type: pIC50
experimental.result: > 6.70
//
molecular.string: Fc1cccc(F)c1-c1nc(N[C@H]2CC[C@H](N3CCCCC3)CC2)n2ncc(Cl)c2n1
result.type: pIC50
experimental.result: > 6.70
